MEASUREMENT_PROTOCOL: in vitro
CONDITION_CONTEXT: human, plasma
RECORDED_ENDPOINT: fraction unbound
Lab note: write the figure by itself, no unit.

Which fraction unbound value is on record for CO[C@H]1/C=C/O[C@@]2(C)Oc3c(C)c(O)c4c(O)c(c5c(nc6cc(C)ccn65)c4c3C2=O)NC(=O)/C(C)=C\C=C\[C@H](C)[C@H](O)[C@@H](C)[C@@H](O)[C@@H](C)[C@H](OC(C)=O)[C@@H]1C ? 0.447

###

MEASUREMENT_PROTOCOL: in vivo
CONDITION_CONTEXT: rat
RECORDED_ENDPOINT: AUC(0-t)

Which AUC(0-t) value is on record for CO[C@H]1/C=C/O[C@@]2(C)Oc3c(C)c(O)c4c(O)c(c5c(nc6cc(C)ccn65)c4c3C2=O)NC(=O)/C(C)=C\C=C\[C@H](C)[C@H](O)[C@@H](C)[C@@H](O)[C@@H](C)[C@H](OC(C)=O)[C@@H]1C ? 42 to 127 ng·h/mL

###

MEASUREMENT_PROTOCOL: clinical
CONDITION_CONTEXT: human, in vivo
RECORDED_ENDPOINT: Cmax

Which Cmax value is on record for CO[C@H]1/C=C/O[C@@]2(C)Oc3c(C)c(O)c4c(O)c(c5c(nc6cc(C)ccn65)c4c3C2=O)NC(=O)/C(C)=C\C=C\[C@H](C)[C@H](O)[C@@H](C)[C@@H](O)[C@@H](C)[C@H](OC(C)=O)[C@@H]1C [rifaximin] ? < 4 ng/mL
